Target: SETD2(1434-1711) (Homo sapiens, UniProt Q9BYW2)
Construct: SETD2 (1434-1711) Assay; catalogue N/A
Sequence (Q9BYW2 1434-1711): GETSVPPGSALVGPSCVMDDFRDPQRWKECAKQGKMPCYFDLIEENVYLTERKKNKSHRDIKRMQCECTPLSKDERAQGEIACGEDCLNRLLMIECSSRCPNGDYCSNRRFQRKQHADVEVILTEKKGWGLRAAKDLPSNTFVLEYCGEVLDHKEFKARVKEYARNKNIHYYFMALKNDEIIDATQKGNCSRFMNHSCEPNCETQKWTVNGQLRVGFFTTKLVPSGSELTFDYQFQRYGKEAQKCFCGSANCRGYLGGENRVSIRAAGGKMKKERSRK
Experiment: SETD2 (1434-1711) assay
Type: biochemical
Conditions: read-out: SETD2 (1434-1711)
Measured endpoint: IC50
Write down the value, and be sure its unit follows.

Lab note: each molecule below needs its IC50 filled in.
1. Cc1cccc2cc(C(=O)NCc3ccccc3N(C)C)[nH]c12
2. Cc1ccc(F)c2cc(C(=O)Nc3cccc(-c4ccncc4)c3)[nH]c12
3. Cc1ccc(F)c2cc(C(=O)NC3CCCC(N4CCn5c(n[nH]c5=O)C4)C3)[nH]c12 (stereo not shown)
4. Cc1ccc(F)c2cc(C(=O)NC3CCCC(N4CCN5C(=O)COCC5C4)C3)[nH]c12 (stereo not shown) [compound 1139]

Result block:
1. 18100 nM
2. 40 nM
3. 3000 nM
4. 500 nM
